test system: K4 kissing-loop RNA reporter; assay: apparent KD of K4 kissing-loop reporter; higher = weaker reporter binding; conditions: Eterna round: R107; input ligand: theophylline 20 uM;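 also: bound reporter read as fluorescence of individual clusters on recovered sequencing chips by microscopy, with normalized cluster intensities fitted with a binding model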
Returns criterion met if the recorded apparent KD of K4 kissing-loop reporter is greater than or equal to 0.4 µM, and criterion not met otherwise.

seq.text	label
AUAAACUUGCAGUGAUGUUGCAAGUGAGACUAGGAUAUCAGGAAGCUGAGAAGGAGUCAUCUCCUUCAGACAUCACUAUGAAGGA [whbob_SS_FMNA__2th179]	criterion not met
UUAGCUCUAUAGAGCAAGAGGUAUACUGAUACCAGAGGCUAUAGCCUCCCUUGGCAGCGGAUCGAGUGAUGUUCGUAACCUCAUU [AK4.5 SS Theophylline A]	criterion met
GAUUCAGUGAUGUUGGAAGGCGAGCGGGAUACCAGCCGAGACUCAGGCCCUUGGCAGCCCACAUAUCCCAGGUAGAUAGUCGAUC [Same State - Theophylline A (Freestyle 9)]	criterion not met
UAUAUAUGAUGUGAUACCAGUGAAAAGCCAGUGAUGUUGGAAGAACUGGUAUAUAAAUAACACCCUUGGCAGCACAAUCACGUAU [theophylline b exclusion]	criterion not met
UGUACCGAGUCAGGAUAUCGCGUCGAAAGACGAAACGAGUGAUGUUCGAAUCGAUCGAAAGAUCGUCGAGAAGGGACUUGGUACU [FmnBS 22 #SwitchBubble #StaticStem #DoubleMagnetSystem]	criterion met
ACACUUUACGUAGGAUAUGCGACGAGUGAUGUUCGUCAGGCGGCCUUAGAUUAAACAAGCCGCCUAGCAGAAGGACGGGCAGUGU [Qumatiri]	criterion not met

====

system: MS2 coat protein; test: apparent KD of MS2 coat protein, switch OFF state (with FMN for OFF switches, without FMN for ON switches); designed switch direction (-1 OFF switch, 1 ON switch): -1; higher = weaker reporter binding; details: FMN input: 0 or 200 uM; Eterna round: R93 (includes R88 designs)

seq.text	apparent KD of MS2 coat protein
GUCCGACAUGAGGAUCACCCAUGUAAGGAUAUGUAUCCUUCGGCCCGAACCAGAGGAAGCAGAAGGUACAGGGA [Oneserqu]	20.9 nM
AAAAAUCGAGGAUAUACAUGAGGAUCACCCAUGUGGGAACACGAUUACACAAAAGAAAGUAGAAGGCGAUAAAA [Ex 3 May 22]	162 nM
GUCCUACAUGAGGAUCACCCAUGUCAGGAUAUGUAGCGUCCGAGCGAAAAGGCCCGGAGCAGAAGGGACAGGUG [Maisbia]	20.1 nM
GGGAUGUCAGGAUAUGUGUAAAGAAUAAAACAAAUAACAACACAGAAGGGACAUGAGGAUCACCCAUGUUACCC [May 39]	15.4 nM
UACUUACAUGAGGAUCACCCAUGUCAGGAUAUGCGCUCAGAGUAUAUAUAAGAUUCAAGCAGAAGGGACACUAA [JR_Exc001_Sub204]	37.2 nM
AGUAGUACAGGAUAUACAUGAGGAUCACCCAUGUGAAAAUAAAGUGGCGUACCACAAAGUAGAAGGGUACUACA [Mat - Exclusion 3 - JL mod - D35]	138 nM
AAACCACAUGAGGAUCACCCAUGUGAGGAUAUGAACGAAAUAAAAUAAAAAUAAAAGUUCAGAAGGCACAAAAA [Mat - Exclusion 1 - Eli mod - D14]	20.6 nM
AAGAAAGCAGGAUAUACAUGAGGAUCACCCAUGUAAAAGAAAGAAGGGAAAGAGAAAAGUAGAAGGGCUAAGAA [Wehemibre Necho II]	38.7 nM

The measured values listed here are drawn from the supplement of paper PMC9170038.
